TESTED ON: human TSHR (Homo sapiens, UniProt P16473)
Construct: expressed in transfected cells
Sequence (P16473 21-764): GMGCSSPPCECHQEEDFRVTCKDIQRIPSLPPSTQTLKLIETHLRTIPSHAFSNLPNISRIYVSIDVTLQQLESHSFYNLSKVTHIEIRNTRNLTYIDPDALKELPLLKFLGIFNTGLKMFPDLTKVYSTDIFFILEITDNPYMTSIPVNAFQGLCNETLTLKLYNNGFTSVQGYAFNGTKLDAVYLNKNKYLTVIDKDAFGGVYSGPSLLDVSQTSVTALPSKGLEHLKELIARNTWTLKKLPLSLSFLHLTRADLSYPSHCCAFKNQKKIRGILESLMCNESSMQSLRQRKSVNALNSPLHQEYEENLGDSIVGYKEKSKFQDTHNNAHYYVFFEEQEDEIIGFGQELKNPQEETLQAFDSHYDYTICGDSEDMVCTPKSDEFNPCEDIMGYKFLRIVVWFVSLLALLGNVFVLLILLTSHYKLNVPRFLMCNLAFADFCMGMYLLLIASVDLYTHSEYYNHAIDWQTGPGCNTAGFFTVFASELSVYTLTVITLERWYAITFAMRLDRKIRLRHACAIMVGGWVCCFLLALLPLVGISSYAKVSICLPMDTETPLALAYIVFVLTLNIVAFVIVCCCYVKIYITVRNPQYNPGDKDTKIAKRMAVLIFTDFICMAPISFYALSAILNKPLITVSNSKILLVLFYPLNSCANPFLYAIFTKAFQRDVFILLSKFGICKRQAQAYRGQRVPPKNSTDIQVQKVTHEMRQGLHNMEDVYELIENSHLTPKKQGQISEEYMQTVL
EXPERIMENT: Homogeneous Time Resolved Fluorescence (HTRF) cAMP assay, TSHR cell line
Type: cell-based
EXPERIMENTAL CONDITIONS: 100% activity = response of 30 mU/ml TSH, 0% = DMSO control; in %
TEST READOUT: Maximum Activity compared to TSH
Hey, just send me the number, nothing else.

Task: Would you mind telling me what Maximum Activity compared to TSH value was observed for COc1ccc(C(=O)N(Cc2ccco2)Cc2ccco2)c(O)c1 [Structure 122] ?
Result: 61.90

Task: Quick check: Maximum Activity compared to TSH of "COc1ccc(-c2nc3ccccc3c(=O)n2Cc2ccco2)cc1COc1ccc(NC(C)=O)cc1" ?
Result: 165.16

Task: // Maximum Activity compared to TSH lookup, key: "COc1ccc(CN(Cc2ccccc2)C(=O)c2ccno2)cc1COc1ccc(NC(C)=O)cc1"
Result: 38.00

Task: Param item = COc1ccc(C2Nc3ccccc3C(=O)N2Cc2ccncc2)cc1COc1ccc(NC(C)=O)cc1 (stereo not drawn) ; retrieve measured Maximum Activity compared to TSH.
Result: 44.00

Task: Item COc1ccc(C2Nc3ccc(NC(=O)CO)cc3C(=O)N2Cc2cccc(Cl)c2)cc1COc1ccc(NC(C)=O)cc1 (stereo not drawn) has what recorded Maximum Activity compared to TSH?
Result: 128.45

Task: Query: Maximum Activity compared to TSH; subject: COc1ccc(C2Cc3ccccc3C(=O)N2Cc2ccccc2)cc1COc1ccc(NC(C)=O)cc1 (stereo not drawn) [Structure 54]
Result: 115.69

Task: Which value of Maximum Activity compared to TSH has been reported for COc1ccc(C2Nc3ccccc3C(=O)N2Cc2ccccn2)cc1COc1ccc(NC(C)=O)cc1 (stereo not drawn) [Structure 269] in the records?
Result: 28.00

Task: I am curious: what Maximum Activity compared to TSH value has been reported for COc1ccc(CN(Cc2ccccc2)C(=O)c2ccncc2)cc1COc1ccc(NC(C)=O)cc1 [Structure 69] ?
Result: 44.83

Task: Sample COc1ccc(C2Nc3ccccc3C(=O)N2Cc2ccccc2)cc1COc1cccc(C)c1 (stereo not drawn) — what was its Maximum Activity compared to TSH?
Result: 38.00

Task: Using the record for COc1ccc(C2Nc3ccccc3C(=O)N2Cc2ccco2)cc1COc1ccc(NC(C)=O)cc1 (stereo not drawn) [Structure 23] , report its Maximum Activity compared to TSH.
Result: 165.50

Task: Look at this compound and give its reported Maximum Activity compared to TSH. COc1ccc(C2Nc3ccc(NC(C)=O)cc3C(=O)N2Cc2ccccc2)cc1COc1ccc(NC(C)=O)cc1 (stereo not drawn)
Result: 137.62

Task: Item under review: COc1ccc(C2Nc3ccccc3C(=O)N2Cc2cccnc2)cc1COc1ccc(NC(C)=O)cc1 (stereo not drawn) . Reported Maximum Activity compared to TSH?
Result: 98.46

Task: Recorded Maximum Activity compared to TSH for "COc1ccc(C(=O)N(Cc2ccccc2)Cc2ccc(OC)c(COc3ccc(NC(C)=O)cc3)c2)cc1" , please?
Result: 141.85

Task: Requested field: Maximum Activity compared to TSH. Item: COc1ccc(C2Nc3ccccc3C(=O)N2Cc2ccccc2)cc1CSc1ccc(NC(C)=O)cc1 (stereo not drawn) [Structure 38]
Result: 573.36

Task: Look at this compound and give its reported Maximum Activity compared to TSH. "COc1ccc(C(=O)N(Cc2ccccc2)Cc2ccccc2)cc1COc1ccc(NC(C)=O)cc1"
Result: 24.50

Task: Tell me the measured Maximum Activity compared to TSH of COc1ccc(C2Nc3ccccc3C(=O)N2Cc2ccccc2C)cc1COc1ccc(NC(C)=O)cc1 (stereo not drawn) , please.
Result: 22.00

Task: # query: Maximum Activity compared to TSH of entry CCCCN1C(=O)c2ccccc2NC1c1ccc(OC)c(COc2ccc(NC(C)=O)cc2)c1 (stereo not drawn) [Structure 39]
Result: 123.60

Task: Quick one: Maximum Activity compared to TSH for COc1ccc(C2Nc3ccccc3C(=O)N2Cc2ccccc2)cc1COc1ccc(NC(C)=O)cc1 (single isomer, unassigned) [Structure 24] ?
Result: 159.76

Task: State the recorded Maximum Activity compared to TSH for this entry: COc1ccc(C2Nc3ccccc3C(=O)N2Cc2ccccc2)cc1COc1ccc(NC(C)=O)cc1 (single isomer, unassigned) [Structure 26]
Result: 217.05

Task: Bench note: what Maximum Activity compared to TSH did COc1ccc(C2Nc3ccccc3C(=O)N2Cc2ccccc2C(F)(F)F)cc1COc1ccc(NC(C)=O)cc1 (stereo not drawn) show?
Result: 24.00

Task: I would be grateful if you could share the reported Maximum Activity compared to TSH for CCC(=O)Nc1ccc(OCc2cc(C3Nc4ccccc4C(=O)N3Cc3ccccc3)ccc2OC)cc1 (stereo not drawn) .
Result: 23.50

Task: Look up Maximum Activity compared to TSH for this compound: COc1ccc(C2Nc3ccccc3C(=O)N2Cc2ccccc2)cc1COc1ccc(NC(C)=O)cc1 (single isomer, unassigned) [Structure 49]
Result: 134.24

Task: For the compound shown here, COc1ccc(C(=O)N(Cc2ccccc2)Cc2ccccc2)c(O)c1 [Structure 131] , give the reported Maximum Activity compared to TSH.
Result: 99.01

Task: Record request: Maximum Activity compared to TSH value, item COc1ccc(-c2nc3ccccc3c(=O)n2Cc2ccccc2)cc1COc1ccc(NC(C)=O)cc1 [Structure 95]
Result: 138.18

Task: Which measured Maximum Activity compared to TSH value corresponds to COc1ccc(C(=O)N(Cc2ccccc2)Cc2cccs2)c(O)c1 [Structure 93] ?
Result: 111.66

Task: Quick check: Maximum Activity compared to TSH of COc1ccc(C2Nc3ccc(Cl)cc3C(=O)N2Cc2ccccc2)cc1COc1ccc(NC(C)=O)cc1 (stereo not drawn) [Structure 119] ?
Result: 56.31

Task: Look up Maximum Activity compared to TSH for this compound: COc1ccc(C2Nc3ccccc3C(=O)N2Cc2ccco2)cc1COc1ccc(NC(C)=O)cc1 (stereo not drawn) [Structure 53]
Result: 141.76

Task: What measured Maximum Activity compared to TSH goes with COc1ccc(CN(Cc2ccccc2)C(=O)COC(C)=O)cc1COc1ccc(NC(C)=O)cc1 [Structure 130] ?
Result: 53.70

Task: If you can, please state the reported Maximum Activity compared to TSH value of "COc1ccc(CN(Cc2ccccc2)C(=O)c2ccco2)cc1COc1ccc(NC(C)=O)cc1" .
Result: 122.50

Task: Entry COc1ccc(C2Nc3ccccc3C(=O)N2C2CCCC2)cc1COc1ccc(NC(C)=O)cc1 (stereo not drawn) : reported Maximum Activity compared to TSH = ?
Result: 21.50

---

TESTED ON: human TSHR (Homo sapiens)
Construct: expressed in transfected cells
EXPERIMENT: Homogeneous Time Resolved Fluorescence (HTRF) cAMP assay, TSHR cell line
Assay type: cell-based
EXPERIMENTAL CONDITIONS: HTRF cAMP, TSHR cell line, 30 minute incubation; read-out: AC50
Record form. Attribute: AC50. Fill in for each entry.
Number only, in µM; omit the unit.

Task: GET /values?readout=AC50&item= COc1ccc(C2Nc3ccccc3C(=O)N2Cc2cccc(C(F)(F)F)c2)cc1COc1ccc(NC(C)=O)cc1 (centres unmarked) [Structure 60]
Result: 6.31

Task: Which value of AC50 has been reported for COc1ccc(CN(Cc2ccccc2)C(=O)c2ccco2)cc1COc1ccc(NC(C)=O)cc1 [Structure 96] in the records?
Result: 14.1

Task: Look up AC50 for this compound: COc1ccc(C2Nc3ccc(NC(=O)CO)cc3C(=O)N2Cc2cccc(Cl)c2)cc1COc1ccc(NC(C)=O)cc1 (centres unmarked) [Structure 43]
Result: 10

Task: // lookup AC50 for COc1ccc(-c2nc3ccccc3c(=O)n2Cc2ccc(CNC(=O)CO)cc2)cc1COc1ccc(NC(C)=O)cc1 [Structure 116]
Result: 35.5

Task: I would be grateful if you could share the reported AC50 for O=C(c1ccccc1O)N(Cc1ccccc1)Cc1ccccc1 [Structure 194] .
Result: 31.6

Task: Fill in the blank: the reported AC50 of COc1ccc(OCc2cc(C3Nc4ccccc4C(=O)N3Cc3ccccc3)ccc2OC)cc1 (centres unmarked) [Structure 256] is ____.
Result: 5.01

Task: Data request, read-out AC50, for COc1ccc(C2Nc3cccc(O)c3C(=O)N2Cc2ccccc2)cc1COc1ccc(NC(C)=O)cc1 (centres unmarked) [Structure 61]
Result: 7.94

Task: For COc1ccc(-c2nc3ccccc3c(=O)n2Cc2ccco2)cc1COc1ccc(NC(C)=O)cc1 [Structure 33] , what is its reported AC50?
Result: 17.8

---

TESTED ON: human TSHR (Homo sapiens, UniProt P16473)
Construct: expressed in transfected cells
EXPERIMENT: Homogeneous Time Resolved Fluorescence (HTRF) cAMP assay, TSHR cell line
Type: cell-based
EXPERIMENTAL CONDITIONS: HTRF cAMP, TSHR cell line, 30 minute incubation; read-out: AC50
TEST READOUT: AC50 (µM)
API: value field is a number in µM; no unit string.

Task: Consider the compound COc1ccc(C2Nc3ccccc3C(=O)N2Cc2ccc(CNC(=O)CO)cc2)cc1COc1ccc(NC(C)=O)cc1 (centres unmarked) [Structure 107] and give its measured AC50.
Result: 31.6

Task: For the compound shown here, COc1ccc(CN(Cc2ccccc2)C(=O)c2cccc(C#N)c2)cc1COc1ccc(NC(C)=O)cc1 [Structure 71] , give the reported AC50.
Result: 7.94

Task: Could you share which AC50 value was measured for CCCCN1C(=O)c2ccccc2NC1c1ccc(OC)c(COc2ccc(NC(C)=O)cc2)c1 (centres unmarked) [Structure 39] ?
Result: 20

Task: Form field: reported AC50 of COc1ccc(C(=O)N(Cc2ccccc2)Cc2cccs2)c(O)c1 [Structure 92]
Result: 31.6

Task: Can you look up the measured AC50 of COc1ccc(CN(Cc2ccccc2)C(=O)COC(C)=O)cc1COc1ccc(NC(C)=O)cc1 [Structure 236] for me?
Result: 35.5

Task: Value lookup for AC50; key = COc1ccc(C2Cc3ccccc3C(=O)N2Cc2ccco2)cc1COc1ccc(NC(C)=O)cc1 (centres unmarked)
Result: 17.8

Task: Using the record for O=C(c1ccccc1O)N(Cc1ccccc1)Cc1ccccc1 [Structure 129] , report its AC50.
Result: 28.2

Task: Quick one: AC50 for COc1ccc(CN(Cc2ccccc2)C(=O)c2ccccc2O)cc1COc1ccc(NC(C)=O)cc1 [Structure 220] ?
Result: 17.8
